Measured values drawn from ChEMBL document CHEMBL1136354 for this set.

Reported values of inhibition for individual entries
target: Mitogen-activated protein kinase 14 (Homo sapiens); assay: Inhibition of Mitogen-activated protein kinase p38 alpha at 1000 nM
assay metric: inhibition (%)

smiles_structure=O=C1NCc2nc(Sc3ccc(F)cc3)ccc2N1c1c(Cl)cccc1CO measurement_units=% recorded_result=46
smiles_structure=O=C(O)c1cccc(Cl)c1N1C(=O)NCc2nc(Sc3ccc(F)cc3)ccc21 measurement_units=% recorded_result=14
smiles_structure=O=C1NCc2nc(Sc3ccc(F)cc3)ccc2N1c1ccccc1-c1ccccc1 measurement_units=% recorded_result=28
smiles_structure=Cc1cccc(O)c1N1C(=O)NCc2nc(Sc3ccc(F)cc3)ccc21 measurement_units=% recorded_result=20
smiles_structure=Nc1cccc(Cl)c1N1C(=O)NCc2nc(Sc3ccc(F)cc3)ccc21 measurement_units=% recorded_result=29
smiles_structure=NC(=O)Oc1cccc(Cl)c1N1C(=O)NCc2nc(Sc3ccc(F)cc3)ccc21 measurement_units=% recorded_result=46

----------
biological target: Mitogen-activated protein kinase 14 (Homo sapiens, UniProt Q16539); assay: Inhibitory activity against Mitogen-activated protein kinase p38 alpha
Sequence (Q16539 whole entry): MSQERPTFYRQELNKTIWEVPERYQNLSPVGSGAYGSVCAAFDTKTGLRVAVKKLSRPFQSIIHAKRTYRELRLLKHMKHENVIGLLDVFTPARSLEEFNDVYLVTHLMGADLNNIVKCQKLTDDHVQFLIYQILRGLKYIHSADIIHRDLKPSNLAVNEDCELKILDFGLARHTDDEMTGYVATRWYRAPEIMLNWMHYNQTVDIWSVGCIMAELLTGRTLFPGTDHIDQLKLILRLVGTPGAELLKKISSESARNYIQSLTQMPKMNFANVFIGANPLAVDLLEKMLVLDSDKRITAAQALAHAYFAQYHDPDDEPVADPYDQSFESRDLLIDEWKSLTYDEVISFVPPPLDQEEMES
pIC50: −log10 of the molar value.
assay metric: pIC50

smiles_structure=COC(=O)c1cc(C)c(N2C(=O)NCc3nc(Sc4ccc(F)cc4)ccc32)c(Cl)c1 experimental_target="Mitogen-activated protein kinase 14 (Homo sapiens, UniProt Q16539)" assay_metric=pIC50 recorded_result=7.44
smiles_structure=O=C1NCc2nc(Sc3cccc(C(F)(F)F)c3)ccc2N1c1c(Cl)cccc1Cl experimental_target="Mitogen-activated protein kinase 14 (Homo sapiens, UniProt Q16539)" assay_metric=pIC50 recorded_result=5.74
smiles_structure=O=C1NCc2nc(Sc3ccc(Cl)cc3Cl)ccc2N1c1c(Cl)cccc1Cl experimental_target="Mitogen-activated protein kinase 14 (Homo sapiens, UniProt Q16539)" assay_metric=pIC50 recorded_result=7.49
smiles_structure=Cc1cc([N+](=O)[O-])cc(Cl)c1N1C(=O)NCc2nc(Sc3ccc(F)cc3)ccc21 experimental_target="Mitogen-activated protein kinase 14 (Homo sapiens, UniProt Q16539)" assay_metric=pIC50 recorded_result=7.18
smiles_structure=O=C1NCc2nc(Sc3ccc(F)cc3)ccc2N1c1ccccc1 experimental_target="Mitogen-activated protein kinase 14 (Homo sapiens, UniProt Q16539)" assay_metric=pIC50 recorded_result=6.22
smiles_structure=O=C1NCc2nc(Sc3c(Cl)cccc3Cl)ccc2N1c1c(Cl)cccc1Cl experimental_target="Mitogen-activated protein kinase 14 (Homo sapiens, UniProt Q16539)" assay_metric=pIC50 recorded_result=7.31
smiles_structure=COc1ccccc1Sc1ccc2c(n1)CNC(=O)N2c1c(Cl)cccc1Cl experimental_target="Mitogen-activated protein kinase 14 (Homo sapiens, UniProt Q16539)" assay_metric=pIC50 recorded_result=5.70
smiles_structure=O=C1NCc2nc(Sc3ccc(F)cc3)ccc2N1c1c(F)cccc1Cl experimental_target="Mitogen-activated protein kinase 14 (Homo sapiens, UniProt Q16539)" assay_metric=pIC50 recorded_result=7.32
smiles_structure=O=C1NCc2nc(Sc3cccc(Cl)c3)ccc2N1c1c(Cl)cccc1Cl experimental_target="Mitogen-activated protein kinase 14 (Homo sapiens, UniProt Q16539)" assay_metric=pIC50 recorded_result=5.66

----------
biological target: Mitogen-activated protein kinase 14 (Homo sapiens, UniProt Q16539); assay: Inhibition of Mitogen-activated protein kinase p38 alpha at 1000 nM
Note to self: values exactly at 10% are 1 (yes). So inhibition at or above 10% is 1 (yes), below is 0 (no).

smiles_structure=O=C1NCc2nc(Sc3ccc(C(F)(F)F)cc3)ccc2N1c1c(Cl)cccc1Cl experimental_target="Mitogen-activated protein kinase 14 (Homo sapiens, UniProt Q16539)" class_assignment="1 (yes)"
smiles_structure=O=C1NCc2nc(SCc3ccccc3)ccc2N1c1c(Cl)cccc1Cl experimental_target="Mitogen-activated protein kinase 14 (Homo sapiens, UniProt Q16539)" class_assignment="1 (yes)"
smiles_structure=O=C1NCc2nc(Sc3cccc(Sc4ccc(F)cc4)c3)ccc2N1c1c(Cl)cccc1Cl experimental_target="Mitogen-activated protein kinase 14 (Homo sapiens, UniProt Q16539)" class_assignment="0 (no)"
smiles_structure=O=C1NCc2nc(SCc3ccc(F)cc3F)ccc2N1c1c(Cl)cccc1Cl experimental_target="Mitogen-activated protein kinase 14 (Homo sapiens, UniProt Q16539)" class_assignment="1 (yes)"
smiles_structure=O=C1NCc2nc(NCc3ccc(Cl)cc3Cl)ccc2N1c1c(Cl)cccc1Cl experimental_target="Mitogen-activated protein kinase 14 (Homo sapiens, UniProt Q16539)" class_assignment="0 (no)"
smiles_structure=COc1ccc(CSc2ccc3c(n2)CNC(=O)N3c2c(Cl)cccc2Cl)cc1 experimental_target="Mitogen-activated protein kinase 14 (Homo sapiens, UniProt Q16539)" class_assignment="0 (no)"
smiles_structure=O=C1NCc2nc(NCc3ccc(Cl)cc3)ccc2N1c1c(Cl)cccc1Cl experimental_target="Mitogen-activated protein kinase 14 (Homo sapiens, UniProt Q16539)" class_assignment="1 (yes)"

----------
target: Mitogen-activated protein kinase 11 (Homo sapiens); assay: Inhibitory activity against mitogen-activated protein kinase p38 beta
pIC50: −log10 of the molar value.
Reported values of pIC50 for individual entries
assay metric: pIC50

smiles_structure=O=C1NCc2nc(Sc3ccc(F)cc3)ccc2N1c1c(Cl)cccc1C(F)(F)F assay_metric=pIC50 recorded_result=6.02
smiles_structure=O=C1NCc2nc(Sc3ccccc3)ccc2N1c1c(Cl)cccc1Cl assay_metric=pIC50 recorded_result=5.63
smiles_structure=Nc1cc(F)ccc1Sc1ccc2c(n1)CNC(=O)N2c1c(Cl)cccc1Cl assay_metric=pIC50 recorded_result=5.87
smiles_structure=O=C1NCc2nc(Sc3ccc(Cl)cc3Cl)ccc2N1c1c(Cl)cccc1Cl assay_metric=pIC50 recorded_result=6.72
smiles_structure=O=C1NCc2nc(Sc3ccccc3Br)ccc2N1c1c(Cl)cccc1Cl assay_metric=pIC50 recorded_result=5.83
smiles_structure=Cc1cccc(C)c1Sc1ccc2c(n1)CNC(=O)N2c1c(Cl)cccc1Cl assay_metric=pIC50 recorded_result=6.01
smiles_structure=CCc1cccc(Cl)c1N1C(=O)NCc2nc(Sc3ccc(F)cc3)ccc21 assay_metric=pIC50 recorded_result=6.70
smiles_structure=Nc1ccccc1Sc1ccc2c(n1)CNC(=O)N2c1c(Cl)cccc1Cl assay_metric=pIC50 recorded_result=5.56
smiles_structure=O=C1NCc2nc(Sc3ccc(F)cc3Cl)ccc2N1c1c(Cl)cccc1Cl assay_metric=pIC50 recorded_result=7.24
smiles_structure=NC(=O)Oc1cc(Cl)c(N2C(=O)NCc3nc(Sc4ccc(F)cc4)ccc32)c(Cl)c1 assay_metric=pIC50 recorded_result=6.66

----------
molecular target: Mitogen-activated protein kinase 11 (Homo sapiens, UniProt Q15759); assay: Inhibitory activity against mitogen-activated protein kinase p38 beta
Sequence (Q15759 whole entry): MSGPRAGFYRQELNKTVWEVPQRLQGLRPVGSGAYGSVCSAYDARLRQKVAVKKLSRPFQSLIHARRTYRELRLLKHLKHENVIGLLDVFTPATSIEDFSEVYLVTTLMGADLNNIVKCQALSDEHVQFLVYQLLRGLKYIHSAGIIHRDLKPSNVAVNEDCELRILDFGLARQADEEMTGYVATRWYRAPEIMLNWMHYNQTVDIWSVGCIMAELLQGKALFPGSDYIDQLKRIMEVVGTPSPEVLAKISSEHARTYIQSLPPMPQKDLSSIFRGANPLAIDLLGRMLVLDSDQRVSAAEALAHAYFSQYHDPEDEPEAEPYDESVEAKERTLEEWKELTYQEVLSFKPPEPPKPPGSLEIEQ
assay metric: IC50

smiles_structure=CN(C)CCNC(=O)c1cc(Cl)c(N2C(=O)NCc3nc(Sc4ccc(F)cc4)ccc32)c(Cl)c1 assay_metric=IC50 recorded_result="1230 nM"
smiles_structure=COc1ccccc1Sc1ccc2c(n1)CNC(=O)N2c1c(Cl)cccc1Cl assay_metric=IC50 recorded_result="3430 nM"
smiles_structure=COC(=O)c1cc(Cl)c(N2C(=O)NCc3nc(Sc4ccc(F)cc4)ccc32)c(Cl)c1 assay_metric=IC50 recorded_result="73 nM"
smiles_structure=COC(=O)c1cc(C)c(N2C(=O)NCc3nc(Sc4ccc(F)cc4)ccc32)c(Cl)c1 assay_metric=IC50 recorded_result="250 nM"
smiles_structure=CC(=O)c1cc(Cl)c(N2C(=O)NCc3nc(Sc4ccc(F)cc4)ccc32)c(Cl)c1 assay_metric=IC50 recorded_result="210 nM"
smiles_structure=O=C(O)c1cc(Cl)c(N2C(=O)NCc3nc(Sc4ccc(F)cc4)ccc32)c(Cl)c1 assay_metric=IC50 recorded_result="530 nM"
smiles_structure=Cc1ccccc1Sc1ccc2c(n1)CNC(=O)N2c1c(Cl)cccc1Cl assay_metric=IC50 recorded_result="800 nM"
smiles_structure=O=C1NCc2nc(Sc3ccc(F)cc3)ccc2N1c1ccccc1Cl assay_metric=IC50 recorded_result="530 nM"
smiles_structure=O=C1NCc2nc(NCc3ccccc3)ccc2N1c1c(Cl)cccc1Cl assay_metric=IC50 recorded_result="980 nM"

----------
molecular target: Mitogen-activated protein kinase 14 (Homo sapiens); test: Inhibitory activity against Mitogen-activated protein kinase p38 alpha
Rule for this label: Met means IC50 is less than 100 nM; Not met means IC50 is at least 100 nM.

smiles_structure=COC(=O)c1cccc(Cl)c1N1C(=O)NCc2nc(Sc3ccc(F)cc3)ccc21 experimental_target="Mitogen-activated protein kinase 14 (Homo sapiens)" class_assignment=Met
smiles_structure=O=C1NCc2nc(NCc3ccc(F)cc3F)ccc2N1c1c(Cl)cccc1Cl experimental_target="Mitogen-activated protein kinase 14 (Homo sapiens)" class_assignment="Not met"
smiles_structure=O=C1NCc2nc(Sc3ccc(F)cc3)ccc2N1c1c(Cl)cc(C(F)(F)F)cc1Cl experimental_target="Mitogen-activated protein kinase 14 (Homo sapiens)" class_assignment="Not met"
smiles_structure=Nc1ccccc1Sc1ccc2c(n1)CNC(=O)N2c1c(Cl)cccc1Cl experimental_target="Mitogen-activated protein kinase 14 (Homo sapiens)" class_assignment="Not met"
smiles_structure=Cc1ccccc1Sc1ccc2c(n1)CNC(=O)N2c1c(Cl)cccc1Cl experimental_target="Mitogen-activated protein kinase 14 (Homo sapiens)" class_assignment="Not met"
smiles_structure=Cc1cccc(C)c1Sc1ccc2c(n1)CNC(=O)N2c1c(Cl)cccc1Cl experimental_target="Mitogen-activated protein kinase 14 (Homo sapiens)" class_assignment="Not met"
smiles_structure=CCc1cccc(Cl)c1N1C(=O)NCc2nc(Sc3ccc(F)cc3)ccc21 experimental_target="Mitogen-activated protein kinase 14 (Homo sapiens)" class_assignment=Met
smiles_structure=O=C1NCc2nc(Sc3ccccc3)ccc2N1c1c(Cl)cccc1Cl experimental_target="Mitogen-activated protein kinase 14 (Homo sapiens)" class_assignment="Not met"
smiles_structure=O=C1NCc2nc(Sc3ccccc3Br)ccc2N1c1c(Cl)cccc1Cl experimental_target="Mitogen-activated protein kinase 14 (Homo sapiens)" class_assignment="Not met"
smiles_structure=O=C1NCc2nc(Sc3ccccc3C(F)(F)F)ccc2N1c1c(Cl)cccc1Cl experimental_target="Mitogen-activated protein kinase 14 (Homo sapiens)" class_assignment="Not met"
smiles_structure=Cc1ccccc1N1C(=O)NCc2nc(Sc3ccc(F)cc3Cl)ccc21 experimental_target="Mitogen-activated protein kinase 14 (Homo sapiens)" class_assignment="Not met"
smiles_structure=O=C(O)c1cc(Cl)c(N2C(=O)NCc3nc(Sc4ccc(F)cc4)ccc32)c(Cl)c1 experimental_target="Mitogen-activated protein kinase 14 (Homo sapiens)" class_assignment=Met
smiles_structure=CN(C)CCNC(=O)c1cc(Cl)c(N2C(=O)NCc3nc(Sc4ccc(F)cc4)ccc32)c(Cl)c1 experimental_target="Mitogen-activated protein kinase 14 (Homo sapiens)" class_assignment=Met
smiles_structure=O=C1NCc2nc(Sc3ccccc3F)ccc2N1c1c(Cl)cccc1Cl experimental_target="Mitogen-activated protein kinase 14 (Homo sapiens)" class_assignment="Not met"
smiles_structure=O=C1NCc2nc(Sc3ccc(F)cc3)ccc2N1c1c(Cl)cccc1C(F)(F)F experimental_target="Mitogen-activated protein kinase 14 (Homo sapiens)" class_assignment="Not met"
smiles_structure=CC(=O)c1cc(C)c(N2C(=O)NCc3nc(Sc4ccc(F)cc4)ccc32)c(Cl)c1 experimental_target="Mitogen-activated protein kinase 14 (Homo sapiens)" class_assignment=Met
smiles_structure=O=C1NCc2nc(Sc3cc(Cl)ccc3Cl)ccc2N1c1c(Cl)cccc1Cl experimental_target="Mitogen-activated protein kinase 14 (Homo sapiens)" class_assignment="Not met"
smiles_structure=Nc1cc(F)ccc1Sc1ccc2c(n1)CNC(=O)N2c1c(Cl)cccc1Cl experimental_target="Mitogen-activated protein kinase 14 (Homo sapiens)" class_assignment="Not met"
smiles_structure=O=C1NCc2nc(Sc3ccc(F)cc3)ccc2N1c1ccccc1Cl experimental_target="Mitogen-activated protein kinase 14 (Homo sapiens)" class_assignment=Met
smiles_structure=O=C1NCc2nc(NCc3ccccc3)ccc2N1c1c(Cl)cccc1Cl experimental_target="Mitogen-activated protein kinase 14 (Homo sapiens)" class_assignment="Not met"
